- assayDetails: Buffer stability of ester prodrugs
- Format: physicochemical
- runParameters: potassium phosphate buffer without S9 fractions, potassium phosphate buffer pH 7.4, 37 °C
measure: half-life at 10 μM (min)
The reply should be a number in min, with the unit left off.

CCOC(=O)[C@H](F)ON1C(=O)N2C[C@H]1C=C(C)[C@H]2C(=O)NCCNS(N)(=O)=O yielded half-life at 10 μM of 26

====

- assayDetails: Stability in intestinal S9 fraction
- Assay type: in vitro ADME, rat
- runParameters: rat, intestinal S9 fraction, pH 7.4; 0.8 mg/mL protein, 10 μM, 37 °C; read-out: Half-life, Rat intestinal S9
measure: half-life at 10 μM (min)
Your answer should be a plain number; it is taken to be in min.

The reported half-life at 10 μM of the compound CCOC(=O)[C@H](F)ON1C(=O)N2C[C@H]1C=C(C)[C@H]2C(=O)NCCNS(N)(=O)=O was 20
